Values were extracted from ChEMBL document CHEMBL4616669.

Target: Mitogen-activated protein kinase 14 (Homo sapiens, UniProt Q16539)
Sequence (Q16539 whole entry): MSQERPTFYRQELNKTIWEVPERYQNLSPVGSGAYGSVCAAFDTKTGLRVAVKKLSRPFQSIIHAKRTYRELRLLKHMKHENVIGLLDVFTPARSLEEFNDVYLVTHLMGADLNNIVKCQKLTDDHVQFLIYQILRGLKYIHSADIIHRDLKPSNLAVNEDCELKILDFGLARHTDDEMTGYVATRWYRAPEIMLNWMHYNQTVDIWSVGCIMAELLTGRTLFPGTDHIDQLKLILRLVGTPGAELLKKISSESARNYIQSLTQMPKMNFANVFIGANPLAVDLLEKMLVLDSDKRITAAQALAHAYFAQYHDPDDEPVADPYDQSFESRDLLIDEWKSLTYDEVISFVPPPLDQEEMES
Assay: Inhibition of recombinant human full-length N-terminal GST-tagged p38alpha MAPK expressed in baculovirus infected Sf9 insect cells using p38 peptide as substrate preincubated for 15 mins followed by substrate addition and measured after 60 mins by ADP-glo assay
Recorded IC50 by entry
Readout: IC50 (nM)

- Smiles string: "O=C(NCCN1CCOCC1)c1ccc2c(c1)C(=O)c1ccc(Nc3ccc(F)c(NC(=O)c4cccs4)c3)cc1CC2"
  Target: "Mitogen-activated protein kinase 14 (Homo sapiens, UniProt Q16539)"
  Readout: "IC50"
  Number: 12
- Smiles string: "O=C(NCCN1CCOCC1)c1ccc2c(c1)C(=O)c1ccc(Nc3ccc(F)c(/C=N/NC(=O)c4ccccc4)c3)cc1CC2"
  Target: "Mitogen-activated protein kinase 14 (Homo sapiens, UniProt Q16539)"
  Readout: "IC50"
  Number: 19.7
- Smiles string: "O=C(NCCN1CCOCC1)c1ccc2c(c1)C(=O)c1ccc(Nc3ccc(F)c(/C=N/NC(=O)c4ccc[se]4)c3)cc1CC2"
  Target: "Mitogen-activated protein kinase 14 (Homo sapiens, UniProt Q16539)"
  Readout: "IC50"
  Number: 16
- Smiles string: "O=C(NCCN1CCOCC1)c1ccc2c(c1)C(=O)c1ccc(Nc3ccc(F)c(NC(=O)c4ccc[se]4)c3)cc1CC2"
  Target: "Mitogen-activated protein kinase 14 (Homo sapiens, UniProt Q16539)"
  Readout: "IC50"
  Number: 24.6
- Smiles string: "O=C(NCCN1CCOCC1)c1ccc2c(c1)C(=O)c1ccc(Nc3ccc(F)c(/C=N/NC(=O)c4cccs4)c3)cc1CC2"
  Target: "Mitogen-activated protein kinase 14 (Homo sapiens, UniProt Q16539)"
  Readout: "IC50"
  Number: 29.7
